Measurement notes: in vitro
Conditions: rat, plasma

{"Compound": "CCCC[C@H](NC(=O)[C@@H]1C[C@@H]2CCCC[C@@H]2N1C(=O)CNC(=O)[C@H](CCCCN)NC(=O)[C@H](Cc1c[nH]cn1)NC(=O)[C@H](Cc1cn(CCOCCOCCOCCOCCOCCOCCOCCOCCOCCOCCN)nn1)NC(=O)[C@H](CC(C)C)N(C)C(=O)[C@H](CCCCNC(=N)N)NC(=O)[C@@H]1CCCN1C(=O)[C@H](CCCNC(=N)N)NC(=O)[C@@H]1CCC(=O)N1)C(=O)N[C@@H](Cc1ccc(Cl)cc1)C(=O)O [compound 35]", "Unit annotation": "%", "remaining at 1 h, 5 μM": 82}
{"Compound": "CCCC[C@H](NC(=O)[C@@H]1C[C@@H]2CCCC[C@@H]2N1C(=O)CNC(=O)[C@H](CCCCN)NC(=O)[C@H](Cc1c[nH]cn1)NC(=O)[C@H](Cc1cn(CCOCCOCCOCCOCCOCCOCCOCCOCCOCCOCCN)nn1)NC(=O)[C@H](CC1CCCCC1)NC(=O)[C@H](CCCCNC(=N)N)NC(=O)[C@@H]1CCCN1C(=O)[C@H](CCCNC(=N)N)NC(=O)[C@@H]1CCC(=O)N1)C(=O)N1CCC[C@H]1C(=O)N[C@@H](Cc1ccc(Cl)cc1)C(=O)O [compound 34]", "Unit annotation": "%", "remaining at 1 h, 5 μM": 72}
{"Compound": "CCCC[C@H](NC(=O)[C@@H]1C[C@@H]2CCCC[C@@H]2N1C(=O)CNC(=O)[C@H](CCCCN)NC(=O)[C@H](Cc1c[nH]cn1)NC(=O)[C@H](Cc1cn(CCOCCOCCOCCOCCOCCOCCOCCOCCOCCOCCN)nn1)NC(=O)[C@H](CC(C)C)N(C)C(=O)[C@H](CCCCNC(=N)N)NC(=O)[C@@H]1CCCN1C(=O)[C@H](CCCNC(=N)N)NC(=O)[C@@H]1CCC(=O)N1)C(=O)N1CCC[C@H]1C(=O)N[C@@H](Cc1ccc(Cl)cc1)C(=O)O [compound 36]", "Unit annotation": "%", "remaining at 1 h, 5 μM": 88}
{"Compound": "CCCC[C@H](NC(=O)[C@@H]1C[C@@H]2CCCC[C@@H]2N1C(=O)CNC(=O)[C@H](CCCCN)NC(=O)[C@H](Cc1cn(CCOCCOCCOCCOCCOCCOCCOCCOCCOCCOCCN)nn1)NC(=O)[C@H](Cc1ccccc1)NC(=O)[C@H](CC1CCCCC1)NC(=O)[C@H](CCCCNC(=N)N)NC(=O)[C@@H]1CCCN1C(=O)[C@H](CCCNC(=N)N)NC(=O)[C@@H]1CCC(=O)N1)C(=O)N[C@H](Cc1ccccc1)C(=O)O [compound 33]", "Unit annotation": "%", "remaining at 1 h, 5 μM": 66}
{"Compound": "CCCC[C@H](NC(=O)[C@@H]1CCCN1C(=O)CNC(=O)[C@H](CCCCN)NC(=O)[C@H](Cc1cn(CCOCCOCCOCCOCCOCCOCCOCCOCCOCCOCCN)nn1)NC(=O)[C@H](Cc1ccccc1)NC(=O)[C@H](CC(C)C)N(C)C(=O)[C@H](CCCCNC(=N)N)NC(=O)[C@@H]1CCCN1C(=O)[C@H](CCCNC(=N)N)NC(=O)[C@@H]1CCC(=O)N1)C(=O)N[C@H](Cc1ccccc1)C(=O)O [compound 29]", "Unit annotation": "%", "remaining at 1 h, 5 μM": 50}

Reference source: patent US20160067347A1
